# Assayed target: ArsD109 C12G/T15W (Escherichia coli, UniProt P46003, C12G/T15W/W35Y/W97Y)
# Experimental protocol: Intrinsic tryptophan fluorescence quenching, As
# Experimental setup: calculated from koff/kon

>  <Compound>
O=[As][O-].[Na+] [As(III), sodium arsenite]

>  <Kd [µM]>
48

$$$$

====

# Assayed target: ArsD109 V17W single-tryptophan derivative (Escherichia coli, UniProt P46003, V17W/W35Y/W97Y)
# Experimental setup: read-out: Kd (binding affinity); calculated from koff/kon
pKd: −log10 of the molar value.
Property name: pKd

>  <Compound>
O=[As][O-].[Na+] [As(III), sodium arsenite]

>  <Property name>
pKd

>  <Endpoint result>
5.70

$$$$

====

# Assayed target: ArsD109 T15W single-tryptophan derivative (Escherichia coli, UniProt P46003, T15W/W35Y/W97Y)
# Experimental protocol: Intrinsic tryptophan fluorescence quenching, metalloid binding to T15W
# Experimental setup: calculated from koff/kon

>  <Compound>
O=[As][O-].[Na+] [As(III), sodium arsenite]

>  <Kd, nM>
1500

$$$$
